test system: OV-90 (Ovarian Carcinoma); experiment: Bliss excess, mean over the matrix (fraction); higher = more synergy;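 also: after 72 h of two-drug dosing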
Use 0.01 as the dividing line for Bliss excess, with the line itself on the Condition met side and lower values as Condition not met.

molecule	assay system	discrete label
Cc1c2c(nn1C)CSCc1cc(n(C)n1)CSc1cc(c3ccccc3c1)OCCCc1c(C(=O)O)n(C)c3c-2c(Cl)ccc13 [AZD5991] + CC(=O)O[C@H]1C(=O)[C@@]2(C)[C@H]([C@H](OC(=O)c3ccccc3)[C@]3(O)C[C@H](OC(=O)[C@H](O)[C@@H](NC(=O)c4ccccc4)c4ccccc4)C(C)=C1C3(C)C)[C@]1(OC(C)=O)CO[C@@H]1C[C@@H]2O [Paclitaxel] (first compound max 1 µM, 7x7, partner max 3 µM)	OV-90 (Ovarian Carcinoma)	Condition met
CC(=O)c1c(C)c2cnc(Nc3ccc(N4CCNCC4)cn3)nc2n(C2CCCC2)c1=O [Palbociclib] + Cn1cnc2c(F)c(Nc3ccc(Br)cc3Cl)c(C(=O)NOCCO)cc21 [Selumetinib] (first compound max 10 µM, 7x7, partner max 10 µM)	OV-90 (Ovarian Carcinoma)	Condition met
NC1(C(=O)N[C@@H](CCO)c2ccc(Cl)cc2)CCN(c2ncnc3[nH]ccc23)CC1 [Capivasertib] + COc1nnc2ccc(N3CCC(c4ccc(OCCN5CCN(C)C(=O)[C@H]5C)cc4)CC3)nn12 [AZD5153] (first compound max 10 µM, 7x7, partner max 1 µM)	OV-90 (Ovarian Carcinoma)	Condition not met
COc1nnc2ccc(N3CCC(c4ccc(OCCN5CCN(C)C(=O)[C@H]5C)cc4)CC3)nn12 [AZD5153] + C[C@@H]1COCCN1C2=NC(=NC(=C2)C3(CC3)[S@](=N)(=O)C)C4=C5C=CNC5=NC=C4 [AZD6738] (first compound max 1 µM, 7x7, partner max 10 µM)	OV-90 (Ovarian Carcinoma)	Condition not met
C=CCn1c(=O)c2cnc(Nc3ccc(N4CCN(C)CC4)cc3)nc2n1-c1cccc(C(C)(C)O)n1 [AZD1775] + Nc1ccn([C@@H]2O[C@H](CO)[C@@H](O)C2(F)F)c(=O)n1 [Gemcitabine] (first compound max 1 µM, partner max 0.3 µM)	OV-90 (Ovarian Carcinoma)	Condition not met
Cc1cc2ncnn2cc1Nc1ncc2c(n1)n(C1CCOCC1)c(=O)n2C [AZD7648] + C=CCn1c(=O)c2cnc(Nc3ccc(N4CCN(C)CC4)cc3)nc2n1-c1cccc(C(C)(C)O)n1 [AZD1775] (first compound max 10 µM, partner max 1 µM)	OV-90 (Ovarian Carcinoma)	Condition not met
C[C@@H](Oc1cc(-c2cnn(C3CCNCC3)c2)cnc1N)c1c(Cl)ccc(F)c1Cl [Crizotinib] + Cn1cnc2c(F)c(Nc3ccc(Br)cc3Cl)c(C(=O)NOCCO)cc21 [Selumetinib] (first compound max 10 µM, 7x7, partner max 10 µM)	OV-90 (Ovarian Carcinoma)	Condition met
COc1cccc(OCCCN)c1-c1cc(Nc2cnc(C#N)cn2)n[nH]1 [Prexasertib] + O=C(c1cc(Cc2n[nH]c(=O)c3ccccc23)ccc1F)N1CCN(C(=O)C2CC2)CC1 [Olaparib] (first compound max 1 µM, 7x7, partner max 10 µM)	OV-90 (Ovarian Carcinoma)	Condition not met
COc1cccc(OCCCN)c1-c1cc(Nc2cnc(C#N)cn2)n[nH]1 [Prexasertib] + CCc1c2c(nc3ccc(O)cc13)-c1cc3c(c(=O)n1C2)COC(=O)[C@]3(O)CC [SN-38] (first compound max 1 µM, 7x7, partner max 0.3 µM)	OV-90 (Ovarian Carcinoma)	Condition not met
C[C@@H](Oc1cc(-c2cnn(C3CCNCC3)c2)cnc1N)c1c(Cl)ccc(F)c1Cl [Crizotinib] + CC1=C(C(=CC=C1)Cl)NC(=O)C2=CN=C(S2)NC3=CC(=NC(=N3)C)N4CCN(CC4)CCO [Dasatinib] (first compound max 10 µM, 7x7, partner max 2 µM)	OV-90 (Ovarian Carcinoma)	Condition met
Cc1c2c(nn1C)CSCc1cc(n(C)n1)CSc1cc(c3ccccc3c1)OCCCc1c(C(=O)O)n(C)c3c-2c(Cl)ccc13 [AZD5991] + CCN(CCO)CCCOc1ccc2c(Nc3cc(CC(=O)Nc4cccc(F)c4)[nH]n3)ncnc2c1 [AZD2811] (first compound max 1 µM, 7x7, partner max 1 µM)	OV-90 (Ovarian Carcinoma)	Condition met
C[C@@H]1COCCN1c1cc(C2([S@](C)(=N)=O)CC2)nc(-c2ccnc3[nH]ccc23)n1 [AZD6738] + Nc1ccn([C@@H]2O[C@H](CO)[C@@H](O)C2(F)F)c(=O)n1 [Gemcitabine] (first compound max 10 µM, 7x7, partner max 0.3 µM)	OV-90 (Ovarian Carcinoma)	Condition not met
CN(CCO)CC[C@H](CSc1ccccc1)Nc1ccc(S(=O)(=O)NC(=O)c2ccc(N3CCC([C@@H](O)c4ccccc4-c4ccc(Cl)cc4)CC3)cc2)cc1S(=O)(=O)C(F)(F)F [AZD4320] + C=CCn1c(=O)c2cnc(Nc3ccc(N4CCN(C)CC4)cc3)nc2n1-c1cccc(C(C)(C)O)n1 [AZD1775] (first compound max 1 µM, partner max 1 µM)	OV-90 (Ovarian Carcinoma)	Condition met
CS(=O)(=O)CCNCc1ccc(-c2ccc3ncnc(Nc4ccc(OCc5cccc(F)c5)c(Cl)c4)c3c2)o1 [Lapatinib] + NC1(c2ccc(-c3nc4ccn5c(=O)[nH]nc5c4cc3-c3ccccc3)cc2)CCC1 [MK-2206] (first compound max 10 µM, 7x7, partner max 10 µM)	OV-90 (Ovarian Carcinoma)	Condition not met
